Reference for the values: the supplement of paper PMC10567573

Here the recorded protein stability index is given for each entry.
B1: SMTNL2 (parent)
chain: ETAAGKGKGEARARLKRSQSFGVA

- Variants of: B1
- run_description: protein stability index of a GFP-peptide fusion (GPS, HEK-293T) (PSI 1-6); higher = more stable;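 also: lentivirally expressed fusions sorted by FACS into six bins by GFP to DsRed ratio, PSI derived from sequencing read proportions per bin multiplied by bin number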
- test_conditions: c terminus: a fixed tail appended
// no unit, no text: just the number

Lab note: ETAAGKGKGEARARLKRSQSFGVV [A24V] gave protein stability index of 4.01

Lab note: ETAAGKVKGEARARLKRSQSFGVA [G7V] gave protein stability index of 4.01

Lab note: ETAAGKGKGEARARLKRPQSFGVA [S18P] gave protein stability index of 4.01

Lab note: ETAAGKGKGEARFRLKRSQSFGVA [A13F] gave protein stability index of 3.9

Lab note: ETAAGKGKGEARMRLKRSQSFGVA [A13M] gave protein stability index of 4.05
